This collection of values is drawn from patent US20220265629A1.

- Assay method text: HFrEF study Part 2 (MAD Cohorts A-D): plasma pharmacokinetics
- Format: in vivo, human
- Conditions: human, plasma, oral, 50 mg, MAD Cohort B, 50 mg BID (with food); individual subjects; read-out: Cmax, Day 1
Property name: Cmax (ng/mL)
Answers are plain numbers, in ng/mL.

// query If you can, please state the reported Cmax value of Cn1cc(S(=O)(=O)[C@@](C)(F)C2CCN(C(=O)Nc3ccon3)CC2)c(C(F)F)n1 [Compound I] .
// result 933

----------
- Assay method text: Single ascending oral dose study in healthy volunteers: plasma pharmacokinetics
- Assay type: in vivo, human
- Conditions: human, plasma, oral, 50 mg; read-out: AUC0-last, Mean
- Description: This example describes the first-in-human study of Compound I. Based on its mechanism of action, Compound I may offer a targeted therapy for patients with DCM caused by genetic or nongenetic mechanisms. […] The concentrations of Compound I in human plasma and urine were quantitated by high performance liquid chromatography with tandem mass spectrometric detection (LC MS/MS) (Biological sample analysis study report Alturas AD17-726). […]
Property name: AUC(0-t) (ng·h/mL)
One number for each entry, in ng·h/mL.

// query If you can, please state the reported AUC(0-t) value of Cn1cc(S(=O)(=O)[C@@](C)(F)C2CCN(C(=O)Nc3ccon3)CC2)c(C(F)F)n1 .
// result 11200

----------
- Assay method text: HFrEF study Part 2 (MAD Cohorts A-D): plasma pharmacokinetics
- Type: in vivo, human
- Conditions: human, plasma, oral, 75 mg, MAD Cohort C, 75 mg BID (with food); Mean; read-out: AUCtau, Day 1
Property name: AUC (ng·h/mL)
Answers are plain numbers, in ng·h/mL.

// query If you can, please state the reported AUC value of Cn1cc(S(=O)(=O)[C@@](C)(F)C2CCN(C(=O)Nc3ccon3)CC2)c(C(F)F)n1 [Compound I] .
// result 10600

----------
- Assay method text: Single ascending oral dose study in healthy volunteers: plasma pharmacokinetics
- Format: in vivo, human
- Conditions: human, plasma, oral, 525 mg, 72 Hours Postdose; 525 mg; read-out: Plasma concentration, Geometric Mean
Property name: concentration at 72 h (ng/mL)
Answers are plain numbers, in ng/mL.

// query If you can, please state the reported concentration at 72 h value of Cn1cc(S(=O)(=O)[C@@](C)(F)C2CCN(C(=O)Nc3ccon3)CC2)c(C(F)F)n1 .
// result 116

----------
- Assay method text: Food effect cross-over study, 200 mg (25 mg tablets), healthy volunteers: plasma pharmacokinetics
- Format: in vivo, human
- Conditions: human, plasma, oral, fasted state, read-out: Tmax, Median (range)
Property name: Tmax (h)
One number for each entry, in h.

// query If you can, please state the reported Tmax value of Cn1cc(S(=O)(=O)[C@@](C)(F)C2CCN(C(=O)Nc3ccon3)CC2)c(C(F)F)n1 .
// result 5

----------
- Assay method text: Single ascending oral dose study in healthy volunteers: plasma pharmacokinetics
- Assay type: in vivo, human
- Conditions: human, plasma, oral, 525 mg, 48 Hours Postdose; 525 mg; read-out: Plasma concentration, Mean
Property name: concentration at 48 h (µg/mL)
Numbers only, in µg/mL.

// query If you can, please state the reported concentration at 48 h value of Cn1cc(S(=O)(=O)[C@@](C)(F)C2CCN(C(=O)Nc3ccon3)CC2)c(C(F)F)n1 .
// result 0.465
